The measurements presented in this section are drawn from ChEMBL document CHEMBL1144881.

tested on: HeLa; assay: In vitro inhibition of cytochrome C release in isolated mitochondria by the compound was determined; type: functional, Homo sapiens; design: concentration or dose not given beside the values
Recorded metric: Inhibition (%)

>  <Molecule>
NC(CN1CCNCC1)Cn1c2ccc(Br)cc2c2cc(Br)ccc21 (stereo not given)

>  <Test result>
71

$$$$
>  <Molecule>
O=C(CN1CCNCC1)Cn1c2ccc(Br)cc2c2cc(Br)ccc21

>  <Test result>
71

$$$$
>  <Molecule>
OC(CN1CCN(Cc2ccc(F)cc2)CC1)Cn1c2ccc(Br)cc2c2cc(Br)ccc21 (stereo not given)

>  <Test result>
65

$$$$
>  <Molecule>
OC(CN1CCN(c2ccc(F)cc2)CC1)Cn1c2ccc(Br)cc2c2cc(Br)ccc21 (stereo not given)

>  <Test result>
15

$$$$
>  <Molecule>
O=C(Nc1ccc(F)cc1)N1CCN(CC(O)Cn2c3ccc(Br)cc3c3cc(Br)ccc32)CC1 (stereo not given)

>  <Test result>
15

$$$$
